Reference source for all entries: ChEMBL document CHEMBL4007388

- Tested on: CCRF-CEM
- protocolDescription: Growth inhibition of human CCRF-CEM cells incubated for 48 hrs by sulforhodamine B assay
- Assay type: functional
endpoint: GI50 (nM)
Reply with just the number (in nM).

Entry under review: `COc1ccc(-c2ccc(-c3ccc(C(=N)N)c(F)c3)s2)cc1` . Reported GI50?
3110

Queued: `N=C(N)c1ccc(-c2ccc(-c3cc(Cl)cc(Cl)c3)s2)cc1`
1540

Likewise for `COc1ccc(-c2ccc(-c3ccc(C(=N)N)cc3)s2)cc1` ?
231

Repeat with `N=C(N)c1ccc(-c2ccc(-c3ccccc3)s2)cc1F`
3200

What do we get for `N=C(N)c1ccc(-c2ccc(-c3ccc(F)cc3)s2)cc1` ?
1820

Also `COc1cc(OC)cc(-c2ccc(-c3ccc(C(=N)N)cc3)s2)c1` , if possible.
1880
